Reference for the values: patent US20200369765A1

tested.on: T1, Human Siglec-9 mutant M8 (human, UniProt Q9Y336 18-463)
T1 construct: Expressed on HEK293T cells; also called Mutant 8
measurement.protocol: flow cytometry, HEK293T transfectants

{"binder": "mAb2 (antibody, human IgG1, V domains shown) VH: EVQLQESGPGLVKPSQSLSLTCTVTGYSITGGFAWNWIRQFPGNTLEWMGYIGYGGSTSYNPSLNSRISITRDTSKNHFFLQFNSVTTEDSATYYCARGDYLFAYWGQGTLVTVSA VL: DIVMTQSHKFMSTSVGDRVSITCKASQDVNTAVAWYQQKPGQSPKLLIYSASYRYTGVPDRFTGSGSGTDFTFTISSVQAEDLAVYYCQQHYSTPRTFGGGTKLEIK", "binding result": "binds"}
{"binder": "mAb1 (antibody, human IgG1, V domains shown) VH: DVQLQESGPGLVKPSQSLSLTCTVTGYSITGGFAWNWIRQFPGNTLEWMGYIGYGGSTSYNPSLNSRISITRDTSKNHFFLQFNSVTTDDSATYYCARGDYLFAYWGQGTLVTVSA VL: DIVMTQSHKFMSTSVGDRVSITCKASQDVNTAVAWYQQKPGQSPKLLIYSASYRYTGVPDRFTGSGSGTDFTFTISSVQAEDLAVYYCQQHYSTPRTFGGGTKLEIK", "binding result": "binds"}
{"binder": "Fab.B (Fab of mAbB) (Fab, V domains shown) VH: QVQLQQPGAELVKPGASVKLSCKASVYTFTSYWMHWVKQRPGQGLEWIGEINPSNGHTNYNEKFKTKAKLTVDKSSSTAYMQLSSLTSEDSAVYFCANGVETYDFDDAMDYWGQGTSVTVSS VL: DIQMTQTTSSLSASLGDRVTISCRASQDINNYLNWYQQKPDGTVKLLIYFTSRLHSGVPSRFSGSGSGTDYSLTISNLEQEDIATYFCQQGDTFPFTFGGGTKLEIK", "binding result": "binds"}
